Biological target: T1, MERS-CoV spike protein on live MERS-CoV (EMC, KNIH-002, KNIH-016 and KNIH-042 strains) (MERS-CoV)
T1 chain: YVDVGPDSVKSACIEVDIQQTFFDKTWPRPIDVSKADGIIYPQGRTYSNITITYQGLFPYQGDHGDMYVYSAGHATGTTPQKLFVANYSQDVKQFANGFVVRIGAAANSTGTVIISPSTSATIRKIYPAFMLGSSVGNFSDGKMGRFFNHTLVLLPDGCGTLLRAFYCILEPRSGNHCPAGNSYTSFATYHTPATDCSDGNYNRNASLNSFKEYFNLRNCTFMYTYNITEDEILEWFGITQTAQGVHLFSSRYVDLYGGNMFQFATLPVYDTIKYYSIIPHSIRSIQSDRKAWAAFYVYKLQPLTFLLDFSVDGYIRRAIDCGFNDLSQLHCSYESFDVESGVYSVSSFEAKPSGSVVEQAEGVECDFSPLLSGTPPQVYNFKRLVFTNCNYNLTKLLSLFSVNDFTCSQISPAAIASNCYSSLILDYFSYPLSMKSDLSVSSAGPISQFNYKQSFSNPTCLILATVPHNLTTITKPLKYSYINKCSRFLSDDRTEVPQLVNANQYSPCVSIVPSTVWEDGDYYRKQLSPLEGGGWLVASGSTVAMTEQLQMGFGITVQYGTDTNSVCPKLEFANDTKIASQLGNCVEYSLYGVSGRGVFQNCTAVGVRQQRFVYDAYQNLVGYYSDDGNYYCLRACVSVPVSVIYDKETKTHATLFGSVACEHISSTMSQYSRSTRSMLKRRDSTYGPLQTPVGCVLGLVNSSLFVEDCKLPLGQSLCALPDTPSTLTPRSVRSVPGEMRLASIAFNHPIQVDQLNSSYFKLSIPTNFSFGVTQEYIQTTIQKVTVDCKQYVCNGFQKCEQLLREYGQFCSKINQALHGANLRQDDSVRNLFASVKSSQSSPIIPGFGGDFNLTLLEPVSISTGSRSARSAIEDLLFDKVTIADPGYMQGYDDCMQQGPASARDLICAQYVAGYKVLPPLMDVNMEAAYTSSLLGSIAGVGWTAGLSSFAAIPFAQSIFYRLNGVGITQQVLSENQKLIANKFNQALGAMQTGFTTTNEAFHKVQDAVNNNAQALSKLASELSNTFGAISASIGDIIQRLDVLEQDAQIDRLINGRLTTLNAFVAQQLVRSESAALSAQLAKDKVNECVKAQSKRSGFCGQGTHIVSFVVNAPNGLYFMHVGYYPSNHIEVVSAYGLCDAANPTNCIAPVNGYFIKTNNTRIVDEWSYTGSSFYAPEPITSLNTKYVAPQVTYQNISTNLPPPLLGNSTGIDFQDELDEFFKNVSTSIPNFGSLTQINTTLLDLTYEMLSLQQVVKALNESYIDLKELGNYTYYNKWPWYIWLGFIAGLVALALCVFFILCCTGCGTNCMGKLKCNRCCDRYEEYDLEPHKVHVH
Experiment: cell-based or functional assay
Parameters: unit not given beside the values
MEASUREMENT NAME: ND50 (PRNT with MERS-CoV)
Numbers only.

Prompt line: Form field: reported ND50 (PRNT with MERS-CoV) of 90-B2 antibody (antibody, V domains shown) VH: QVQLQESGPGLVKPSETLSLTCTVSGGSISSSSYYWGWIRQPPGKGLEWIGSIYYSGNTYYNPSLKSRVTISVDTSKNHFSLRLSSVTAADTAVYFCARSLPHYDSTGYLLYWGQGTLVTVSS VL: EIVLTQSPATLSLSPGGRATLSCRASQSVSRYLAWYQQKPGRAPRLLIYDASNRAPGIPARFSGSGSGTDFTLTISSLEPEDFAVYYCQQRSNWPQTTFGPGTKVDIKR
Response line: 39.5
